Biological target: SERCA2a (Sus scrofa, UniProt P11607)
Construct: Cardiac SR vesicles were isolated from fresh porcine left ventricular tissue using differential centrifugation; from tissue; host or cells: porcine left ventricular tissue (cardiac SR vesicles)
Sequence (P11607 1-997 isoform P11607-2): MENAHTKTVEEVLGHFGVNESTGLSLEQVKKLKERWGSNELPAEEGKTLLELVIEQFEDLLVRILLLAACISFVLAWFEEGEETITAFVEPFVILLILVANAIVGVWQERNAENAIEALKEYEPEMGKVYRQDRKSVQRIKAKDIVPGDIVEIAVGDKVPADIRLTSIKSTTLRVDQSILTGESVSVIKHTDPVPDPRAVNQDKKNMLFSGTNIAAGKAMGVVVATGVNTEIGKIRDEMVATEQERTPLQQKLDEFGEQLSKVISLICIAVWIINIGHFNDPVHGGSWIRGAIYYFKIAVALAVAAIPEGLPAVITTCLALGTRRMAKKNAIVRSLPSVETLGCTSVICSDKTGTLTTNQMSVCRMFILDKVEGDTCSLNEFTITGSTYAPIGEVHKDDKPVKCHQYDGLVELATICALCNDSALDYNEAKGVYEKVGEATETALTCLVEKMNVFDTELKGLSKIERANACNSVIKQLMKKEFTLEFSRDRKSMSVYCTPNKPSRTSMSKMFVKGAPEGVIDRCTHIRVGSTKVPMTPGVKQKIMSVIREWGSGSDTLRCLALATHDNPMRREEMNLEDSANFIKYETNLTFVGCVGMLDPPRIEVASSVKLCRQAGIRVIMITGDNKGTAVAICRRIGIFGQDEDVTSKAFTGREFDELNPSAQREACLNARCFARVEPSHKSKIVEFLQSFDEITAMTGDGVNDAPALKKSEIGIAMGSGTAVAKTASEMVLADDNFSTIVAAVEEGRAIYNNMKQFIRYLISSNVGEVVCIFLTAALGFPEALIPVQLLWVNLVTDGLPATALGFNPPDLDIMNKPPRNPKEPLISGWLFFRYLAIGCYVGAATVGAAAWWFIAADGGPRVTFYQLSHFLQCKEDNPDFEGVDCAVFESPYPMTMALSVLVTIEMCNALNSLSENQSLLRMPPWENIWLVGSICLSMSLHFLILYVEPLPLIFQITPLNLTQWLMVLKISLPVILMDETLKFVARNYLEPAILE
Assay: Oxalate-supported Fluo-4 Ca2+-uptake (Ca2+-transport) assay in pig cardiac SR (pCSR) vesicles
Assay type: biochemical
Conditions: [Ca2+]MAX (pCa5.4)
assay metric: EC50 (µM)
Expressed in µM, but write only the number.

Some solved entries appear below for comparison.
COC(=O)CSc1ncc(-c2ccc(F)cc2)c(C2CCCN(C(=O)c3cccc(F)c3)C2)n1 (centres unmarked) : 1.8
OCC1(Cc2ccccc2F)CCCN(Cc2cc3c(cc2Cl)OCO3)C1 (centres unmarked) : 1.8
O=C(c1ccc(-c2ccc(O)cc2)nc1)N1CCC(CCc2ccccc2)CC1 : 16
CCc1ccc(S(=O)(=O)N2CCCC(C(=O)c3sccc3C)C2)cc1 (centres unmarked) : 3.4

Query: So what's the measured EC50 for this one? OCC1(CCOc2ccccc2)CCCN(Cc2cc3c(cc2Cl)OCO3)C1 (centres unmarked)
Result: 3.6

====

CR (coupling ratio) VU/VA: recorded values
Target: SERCA2a (Sus scrofa, UniProt P11607)
Construct: Cardiac SR vesicles were isolated from fresh porcine left ventricular tissue using differential centrifugation; from tissue; host or cells: porcine left ventricular tissue (cardiac SR vesicles)
Experiment: Oxalate-supported Fluo-4 Ca2+-uptake (Ca2+-transport) assay in pig cardiac SR (pCSR) vesicles
Assay type: biochemical
Settings: maximum Ca2+-uptake rate / Ca2+-ATPase rate at [Ca2+]MAX; DMSO control = 0.66
Description: Cardiac SR vesicles were isolated from fresh porcine left ventricular tissue using differential centrifugation of the homogenized tissue as previously described. The SR vesicles were flash-frozen and stored at − 80 °C until needed. […] SERCA2a activity, F (rate of ATP hydrolysis or Ca^2+ uptake), was measured at varying pCa and varying compound concentration. […]
Output: the number by itself.

Some solved entries appear below for comparison.
CCC(C)(C)c1nnc(NC(=O)NCc2ccc(F)cc2F)s1 : 0.19
O=C(c1ccc(-c2ccc(O)cc2)nc1)N1CCC(CCc2ccccc2)CC1 : 0.48
Cc1cnc(C)c(N2CCN(C(=O)c3cc(COc4ccc5ncccc5c4)on3)CC2)n1 : 0.49
COc1ccc(Cn2cc(C(=O)N(C)Cc3ccnc4ccccc34)nn2)cc1 : 0.35
Cc1nc(N2CCCCCCC2)ncc1C(C)NC(=O)c1ccnn1C (stereo not drawn) : 0.49

Query: So what's the measured CR (coupling ratio) VU/VA for this one? `O=S(=O)(NCc1ccccc1)N1CCc2ccc(C(F)(F)F)cc2C1`
Result: 0.09

Query: So what's the measured CR (coupling ratio) VU/VA for this one? CC1Cc2cc(CNC(=O)c3cc(C(C)C)nn3C)ccc2O1 (stereo not drawn)
Result: 0.51

Query: So what's the measured CR (coupling ratio) VU/VA for this one? CCn1nc(C)c(CN2CCCC(Nc3ccc(C(C)C)cc3)C2)c1C (stereo not drawn)
Result: 0.74

Query: So what's the measured CR (coupling ratio) VU/VA for this one? `COc1ccc(Cc2noc(CN3CCN(c4nc5ccccc5s4)CC3)n2)cc1OC`
Result: 0.47

====

Target: human two-color SERCA2a (2CS) biosensor (Homo sapiens, UniProt P16615, INS508[…])
Sequence (P16615 other isoform, or with tags, fused parts or gaps with the stated changes): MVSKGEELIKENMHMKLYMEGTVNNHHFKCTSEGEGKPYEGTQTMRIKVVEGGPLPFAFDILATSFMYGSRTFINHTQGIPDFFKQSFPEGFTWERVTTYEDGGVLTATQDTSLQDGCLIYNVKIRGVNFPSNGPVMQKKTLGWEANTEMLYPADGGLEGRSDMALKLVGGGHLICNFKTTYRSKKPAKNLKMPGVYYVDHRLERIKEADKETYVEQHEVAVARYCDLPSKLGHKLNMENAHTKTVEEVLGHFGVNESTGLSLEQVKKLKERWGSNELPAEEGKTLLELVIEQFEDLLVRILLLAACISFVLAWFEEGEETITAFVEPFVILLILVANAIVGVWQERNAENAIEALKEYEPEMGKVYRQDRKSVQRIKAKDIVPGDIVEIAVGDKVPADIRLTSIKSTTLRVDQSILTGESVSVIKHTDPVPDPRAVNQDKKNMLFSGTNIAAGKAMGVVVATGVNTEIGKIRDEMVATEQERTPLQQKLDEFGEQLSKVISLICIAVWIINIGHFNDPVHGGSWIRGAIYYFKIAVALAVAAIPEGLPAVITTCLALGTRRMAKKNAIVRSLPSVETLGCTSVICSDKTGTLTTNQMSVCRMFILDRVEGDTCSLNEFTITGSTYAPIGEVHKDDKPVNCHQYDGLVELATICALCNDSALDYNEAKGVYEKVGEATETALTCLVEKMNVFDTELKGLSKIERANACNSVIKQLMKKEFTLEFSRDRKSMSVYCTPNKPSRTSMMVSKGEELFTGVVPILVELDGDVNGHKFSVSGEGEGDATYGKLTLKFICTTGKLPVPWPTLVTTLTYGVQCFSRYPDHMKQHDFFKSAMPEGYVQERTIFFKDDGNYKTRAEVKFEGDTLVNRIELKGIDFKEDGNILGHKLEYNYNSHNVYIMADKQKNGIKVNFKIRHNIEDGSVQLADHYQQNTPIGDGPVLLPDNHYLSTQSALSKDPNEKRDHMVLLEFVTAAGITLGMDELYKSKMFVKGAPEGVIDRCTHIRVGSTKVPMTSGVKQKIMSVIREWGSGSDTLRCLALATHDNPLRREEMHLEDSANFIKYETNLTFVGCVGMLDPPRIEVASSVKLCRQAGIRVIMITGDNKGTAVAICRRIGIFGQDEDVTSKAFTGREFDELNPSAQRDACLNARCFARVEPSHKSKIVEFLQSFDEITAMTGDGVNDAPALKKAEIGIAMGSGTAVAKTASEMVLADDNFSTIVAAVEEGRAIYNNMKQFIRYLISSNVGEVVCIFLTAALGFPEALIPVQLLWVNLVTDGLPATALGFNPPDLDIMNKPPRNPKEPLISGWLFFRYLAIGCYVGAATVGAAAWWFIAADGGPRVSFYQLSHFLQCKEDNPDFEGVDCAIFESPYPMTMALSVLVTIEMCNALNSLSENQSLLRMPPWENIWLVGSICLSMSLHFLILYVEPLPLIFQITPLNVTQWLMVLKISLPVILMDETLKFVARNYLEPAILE
Test: FRET concentration response curves (FLT-FRET) with the 2CS biosensor in live HEK cells
assay metric: EC50
Returns: string containing the number followed by the unit.

Some solved entries appear below for comparison.
O=C(c1cc(COc2ccc3c(c2)CCCC3)on1)N1CCC(c2ccncc2)CC1 : 1.6 µM
OCC1(CCOc2ccccc2)CCCN(Cc2cc3c(cc2Cl)OCO3)C1 (centres unmarked) : 9.9 µM

Query: So what's the measured EC50 for this one? `CCC(C)(C)c1nnc(NC(=O)NCc2ccc(F)cc2F)s1`
Result: 16 µM

Query: So what's the measured EC50 for this one? COC(=O)CSc1ncc(-c2ccc(F)cc2)c(C2CCCN(C(=O)c3cccc(F)c3)C2)n1 (centres unmarked)
Result: 14 µM

Query: So what's the measured EC50 for this one? Cc1nc(N2CCCCCCC2)ncc1C(C)NC(=O)c1ccnn1C (centres unmarked)
Result: 3 µM
